Recorded values, source patent US20220242939A1.

Target: T1, L198 N-terminal neo-epitope peptide LAGQPL-Acp-C (SEQ ID NO:52) conjugated to BSA (human, not fully specified (residue 8); printed as LAGQPL-Acp-C; also: C-terminal Cys conjugated to BSA carrier)
T1 construct: BSA carrier; also called L198-BSA peptide
T1 peptide: LAGQPL[Ahx]C
Test: direct ELISA, L198-BSA peptide coated at 1 µg/ml
Non-standard residues stand in square brackets, D forms with d. No end group written: not given here. Ahx = NCCCCCC(=O)O
PROPERTY: EC50 (ng/mL)

{"BINDER": "8B3, monoclonal anti-L198 antibody (antibody, IgG2b, V domains shown) VH: EVKVEESGGGVVQPGGSMKLSCLASGFTFRNYWMNWVRQSPEKGLEWVAQIRLKSDNYATRYAESVKGRFTISRDDSKSSVYLQMNNLRAEDTGTYYCSGHILLRYYALDFWGQGTSVTVSS VL: DIVLTQSQKFMSTSVGDRVSVTCKASQNVYTDVAWYQQKPGQSPKGMIYSASYRYSGVPDRFTGSGSGTDFTLKISNVQSEDLAEYFCQQYNSFPYTFGGGTKLEIK", "UNIT": "ng/mL", "MEASURED": 8.4}
